// values below are reported Emax
System: E. rostratum conidia
Test: conidia growth inhibition ATP content assay (RPMI, 1536-well)
Type: cell-based, Exserohilum rostratum
Details: Exserohilum rostratum; Table S1; 46 µM Amphotericin B = 100%; Inact. = no significant activity at 46 µM; read-out: Conidia % M. Res.
Experimental: Conidia and hyphae of E. rostratum were obtained as described by Richard et al., with the following modifications. […] After centrifugation at 700g for 10 min, the suspension was decanted and conidia were resuspended at 1×10^5 per ml in RPMI and counted in a hemocytometer. […] The ATPLite assay kit, consisting of luciferase/luciferin and detergent, was used to quantitate cellular ATP levels as a marker for cell viability (Table 1). […]
observable: Emax (%)

compound: c1ccc(-c2ccc(C(c3ccccc3)n3ccnc3)cc2)cc1 (stereo not drawn) [Bifonazole]
test.target: E. rostratum conidia
experimental.result: 64
//
compound: N#C/C(=C1/SC[C@@H](c2ccc(Cl)cc2Cl)S1)n1ccnc1 [Luliconazole]
test.target: E. rostratum conidia
experimental.result: 100
//
compound: CC(=O)N1CCN(c2ccc(OCC3COC(Cn4ccnc4)(c4ccc(Cl)cc4Cl)O3)cc2)CC1 (stereo not drawn) [Ketoconazole]
test.target: E. rostratum conidia
experimental.result: 101
//
compound: CN(C)C(=S)SC(=S)N(C)C [Tetramethylthiuram monosulfide]
test.target: E. rostratum conidia
experimental.result: 23
//
compound: CC1(C)CCC(=Cc2ccc(Cl)cc2)C1(O)Cn1cncn1 (stereo not drawn) [Triticonazole]
test.target: E. rostratum conidia
experimental.result: 100
//
compound: Clc1ccc(C(Cn2ccnc2)OCc2ccsc2Cl)c(Cl)c1 (stereo not drawn) [Tioconazole]
test.target: E. rostratum conidia
experimental.result: 101
//
compound: C[C@@H]1[C@H](O)[C@@H](C)/C=C/C=C/C=C/C=C/C=C/C=C/C=C/[C@H](O[C@@H]2O[C@H](C)[C@@H](O)[C@H](N)[C@@H]2O)C[C@@H]2O[C@](O)(C[C@@H](O)C[C@@H](O)[C@H](O)CC[C@@H](O)C[C@@H](O)CC(=O)O[C@H]1C)C[C@H](O)[C@H]2C(=O)O [Amphotericin B]
test.target: E. rostratum conidia
experimental.result: 104
//
compound: Clc1ccc(COC(Cn2ccnc2)c2ccc(Cl)cc2Cl)cc1 (stereo not drawn) [Econazole nitrate]
test.target: E. rostratum conidia
experimental.result: 64
//
compound: CC(C)N1CCN(c2ccc(OCC3COC(Cn4cncn4)(c4ccc(Cl)cc4Cl)O3)cc2)CC1 (stereo not drawn) [Terconazole]
test.target: E. rostratum conidia
experimental.result: 101

====

Test system: SH-SY5Y cells
Test: SH-SY5Y cytotoxicity counter-screen (ATP content assay)
Format: cell-based, Human
Conditions: Table 2, SH-SY5Y; 46 µM Amphotericin B = 100%; inact. = no significant activity at 46 µM
Experimental: Human neuroblastoma SH-SY5Y cell line (Catalog No. CRL-2266) was purchased from ATCC (Manassas, VA). […] The ATPLite assay kit, consisting of luciferase/luciferin and detergent, was used to quantitate cellular ATP levels as a marker for cell viability (Table 1). […] The assay plates were incubated at room temperature for 15 minutes before reading luminescence intensity on a ViewLux plate reader (Perkin Elmer, Waltham, MA). […]

compound: Oc1c(I)cc(Cl)c2cccnc12 [Clioquinol]
SH-SY5Y % Max. Resp.: 60%

compound: CC[C@@H]([C@H](C)O)n1ncn(-c2ccc(N3CCN(c4ccc(OC[C@@H]5CO[C@@](Cn6cncn6)(c6ccc(F)cc6F)C5)cc4)CC3)cc2)c1=O [Posaconazole]
SH-SY5Y % Max. Resp.: inact.

compound: CC(=O)N1CCN(c2ccc(OCC3COC(Cn4ccnc4)(c4ccc(Cl)cc4Cl)O3)cc2)CC1 (stereo not drawn) [Ketoconazole]
SH-SY5Y % Max. Resp.: inact.

compound: Oc1ccc(Cl)cc1Sc1cc(Cl)ccc1O [Fenticlor]
SH-SY5Y % Max. Resp.: inact.

compound: C=CCOC(Cn1ccnc1)c1ccc(Cl)cc1Cl (stereo not drawn) [Enilconazole]
SH-SY5Y % Max. Resp.: inact.

compound: C[C@@H](c1ncncc1F)[C@](O)(Cn1cncn1)c1ccc(F)cc1F [Voriconazole]
SH-SY5Y % Max. Resp.: inact.

compound: O=C1[O][Pt]2([NH][C@@H]3CCCC[C@H]3[NH]2)[O]C1=O [Oxaliplatin]
SH-SY5Y % Max. Resp.: inact.

compound: CCC(C)(C)c1ccc(CC(C)CN2C[C@@H](C)O[C@@H](C)C2)cc1 (stereo partly drawn) [Amorolfine]
SH-SY5Y % Max. Resp.: inact.

compound: Cc1ccc2c(Br)cc(Br)c(O)c2n1 [Broquinaldol]
SH-SY5Y % Max. Resp.: inact.

compound: CC(C)N1CCN(c2ccc(OCC3COC(Cn4cncn4)(c4ccc(Cl)cc4Cl)O3)cc2)CC1 (stereo not drawn) [Terconazole]
SH-SY5Y % Max. Resp.: inact.

compound: CCCCCCCCCCCCCC[N+](C)(C)C [Tetradonium bromide]
SH-SY5Y % Max. Resp.: inact.

compound: O=[N+]([O-])c1c(Cl)cccc1-c1c[nH]cc1Cl [Pyrrolnitrin]
SH-SY5Y % Max. Resp.: inact.

compound: COCc1c(C(C)C)nc(C(C)C)c(/C=C/[C@@H](O)C[C@@H](O)CC(=O)O)c1-c1ccc(F)cc1 [Cerivastatin sodium]
SH-SY5Y % Max. Resp.: inact.

compound: O=C(Nc1ccc(Br)cc1)c1cc(Br)cc(Br)c1O [Tribromosalan]
SH-SY5Y % Max. Resp.: inact.

compound: C[CH2][Hg][S]c1ccccc1C(=O)[O-].[Na+] [Thimerosal]
SH-SY5Y % Max. Resp.: 96%

compound: CCCCCCC(=O)CCCCCC/C=C/C[C@@H](O)[C@H](O)[C@@](N)(CO)C(=O)O [Myriocin]
SH-SY5Y % Max. Resp.: inact.

compound: CC(=O)[O][Hg][c]1ccccc1 [Phenylmercuric acetate]
SH-SY5Y % Max. Resp.: 96%

compound: N#C/C(=C1/SCC(c2ccccc2Cl)S1)n1ccnc1 (stereo not drawn) [Lanoconazole]
SH-SY5Y % Max. Resp.: inact.

====

tested on: SH-SY5Y cells; assay: SH-SY5Y cytotoxicity counter-screen (ATP content assay); format: cell-based, Human; conditions: Homo sapiens, SH-SY5Y; Table S1; Inact. = no significant activity at the highest compound concentration (46 µM)
observable: IC50 (µM)

compound: c1ccc(-c2ccc(C(c3ccccc3)n3ccnc3)cc2)cc1 (stereo not shown) [Bifonazole]
observable: IC50
experimental.result: 46.9

====

system: SH-SY5Y cells; assay: SH-SY5Y cytotoxicity counter-screen (ATP content assay); type: cell-based, Human; conditions: Table 2, SH-SY5Y; 46 µM Amphotericin B = 100%; inact. = no significant activity at 46 µM
Below, each entry is listed with its recorded SH-SY5Y % Max. Resp..
observable: SH-SY5Y % Max. Resp. (%)

compound: Oc1c(I)cc(I)c2cccnc12 [Iodoquinol]
test.target: SH-SY5Y cells
measurement.unit: %
experimental.result: 58
//
compound: CNc1ccc2oc(C[C@H]3O[C@@]4(CC[C@H]3C)O[C@H]([C@H](C)C(=O)c3ccc[nH]3)[C@H](C)C[C@H]4C)nc2c1C(=O)O [Calcimycin]
test.target: SH-SY5Y cells
measurement.unit: %
experimental.result: 94
